System: lymphocytic leukemia P388
Assay: in vivo lymphocytic leukemia P388 test
Set-up: species or system mice
Conditions: Mus musculus, P388, ip, 720 h, P388, Dose 25 mg/kg intraperitoneally, two single doses four days apart; read-out: T/C × 100 (Percent)
Label true when response vs control in vivo at 25 mg/kg is at or above 200%; anything below gets false.

Below, 6 compounds whose answers are already recorded.
- CN(C)CCNc1ccc2c3c(nn2CCNCCO)-c2ccccc2C(=O)c13: false
- COCCn1nc2c3c(c(NCCNCCO)ccc31)C(=O)c1c(O)ccc(O)c1-2: false
- NCCCCNc1ccc2c3c(nn2CCNCCO)-c2c(O)ccc(O)c2C(=O)c13: false
- CCN(CC)CCNc1ccc2c3c(nn2CCNCCO)-c2c(O)ccc(O)c2C(=O)c13: false
- CN(C)CCNc1ccc2c3c(nn2CCO)-c2c(O)ccc(O)c2C(=O)c13: false
- Cn1nc2c3c(c(NCCNCCO)ccc31)C(=O)c1c(O)ccc(O)c1-2: false

Enquiry: Does the compound "CCN(CC)CCNc1ccc2c3c(nn2CCN(CC)CC)-c2c(O)ccc(O)c2C(=O)c13" have recorded response vs control in vivo at 25 mg/kg that is 200% or more?
Return: false

Enquiry: Does the compound "NCCNCCNc1ccc2c3c(nn2CCNCCO)-c2c(O)ccc(O)c2C(=O)c13" have recorded response vs control in vivo at 25 mg/kg that is 200% or more?
Return: true

Enquiry: Does the compound "O=C1c2c(O)ccc(O)c2-c2nn(CCNCCO)c3ccc(NCCCN(CCO)CCO)c1c23" have recorded response vs control in vivo at 25 mg/kg that is 200% or more?
Return: false

Enquiry: Does the compound "O=C1c2c(O)ccc(O)c2-c2nn(CCCNCCO)c3ccc(NCCNCCO)c1c23" have recorded response vs control in vivo at 25 mg/kg that is 200% or more?
Return: false

Enquiry: Does the compound "CN1CCN(c2ccc3c4c(nn3CCNCCO)-c3c(O)ccc(O)c3C(=O)c24)CC1" have recorded response vs control in vivo at 25 mg/kg that is 200% or more?
Return: false

Enquiry: Does the compound "O=C1c2c(O)c(O)cc(O)c2-c2nn(CCNCCO)c3ccc(NCCNCCO)c1c23" have recorded response vs control in vivo at 25 mg/kg that is 200% or more?
Return: true

Enquiry: Does the compound "NCCNc1ccc2c3c(nn2CCNCCO)-c2ccccc2C(=O)c13" have recorded response vs control in vivo at 25 mg/kg that is 200% or more?
Return: false

Enquiry: Does the compound "NCCCn1nc2c3c(c(NCCNCCO)ccc31)C(=O)c1c(O)ccc(O)c1-2" have recorded response vs control in vivo at 25 mg/kg that is 200% or more?
Return: true

Enquiry: Does the compound "CCN(CC)CCn1nc2c3c(c(NCCN)ccc31)C(=O)c1c(O)ccc(O)c1-2" have recorded response vs control in vivo at 25 mg/kg that is 200% or more?
Return: false

Enquiry: Does the compound "O=C1c2c(O)ccc(O)c2-c2nn(CCNCCO)c3ccc(NCCNCCO)c1c23" have recorded response vs control in vivo at 25 mg/kg that is 200% or more?
Return: false
